Kindly find below pIC50 information for BTK (Homo sapiens, UniProt Q06187) taken from the literature.
Quick note: pIC50 means taking -log10 of the concentration in moles per liter.

>>> reportedresult("C=CC(=O)N1CC2COC[C@]2(c2nc(-c3ccc(C(=O)Nc4ccccn4)cc3)c3c(N)nccn23)C1 (stereo partly shown)")
7.18
>>> reportedresult("CCC(=O)Nc1cccc(Nc2cc(Nc3ccc(Oc4ccccc4)cc3)ncn2)c1")
5.07

Here's the next entry for you.
Fill: pIC50 (BTK (Homo sapiens, UniProt Q06187)) for this molecule Cc1c(NC(=O)c2ccc(C(C)(C)C)cc2)cccc1-c1ncnc(Nc2ccc(C(=O)N3CCOC(CN)C3)cc2)n1 (stereo not shown)
8.09
